B1: ZNF8 (parent)
chain: RTHTGEKPYTCSVCGKSFSRTTCL

# Variants of: B1
# protocol_notes: protein stability index of a GFP-peptide fusion (GPS, HEK-293T) (PSI 1-6); higher = more stable;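 note: lentivirally expressed fusions sorted by FACS into six bins by GFP to DsRed ratio, PSI derived from sequencing read proportions per bin multiplied by bin number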
# experimental_conditions: c terminus: a fixed tail appended
Threshold check on protein stability index: at or above 2 gives 1.0, strictly below gives 0.0.

V13Q | 0.0
K16M | 1.0
T2I | 0.0
Y9L | 1.0
R20W | 1.0
G5E | 1.0
C11M | 1.0
T4Q | 1.0
T22H | 1.0
C11T | 1.0

**Q:** Hi team, for P8D , is the recorded protein stability index at or above 2?
**A:** 1.0

**Q:** Does the variant C23W have recorded protein stability index that is 2 or more?
**A:** 0.0

**Q:** Given L24F , state whether its protein stability index is at least 2.
**A:** 1.0

**Q:** Does the reported protein stability index for T10S fall at or above the 2 mark?
**A:** 1.0

**Q:** Reported protein stability index reaches at least 2 for F18R ?
**A:** 1.0

**Q:** Decide: protein stability index of G15Y >= 2?
**A:** 0.0

**Q:** Please check the record T4F and state if its protein stability index is at or above 2.
**A:** 0.0

**Q:** Hello, I need to know if L24D has measured protein stability index not below 2. Thanks!
**A:** 1.0

**Q:** Does T22L have a reported protein stability index of at least 2?
**A:** 0.0
